Parameter: MS DAR. Scope: all listed entries.
test: Conjugator-antibody conjugate stability in pH 7.4 and 8.0 buffer with and without GSH; format: physicochemical; settings: incubation 20 h, pH 8.0, 22 °C;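 further: conjugate hydrolysis tracked by LC-MS analysis of reduced samples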
In your answer, state the number alone without any accompanying words.

Recorded results for 5 molecules are shown here.
molecule | MS DAR
CN(C)C(=O)CCCCC(CN)N1C(=O)C=CC1=O (stereo not drawn) | 8.00
NCC(COC(=O)NCCOCCOCCOCCOCCC(=O)O)N1C(=O)C=CC1=O (stereo not drawn) | 8.00
CN(C)C(=O)CCOCC(N)CN1C(=O)C=CC1=O (stereo not drawn) | 8.00
CN(C)C(=O)CCNC(=O)OCC(CCN)N1C(=O)C=CC1=O (stereo not drawn) | 8.00
CC(C)N(CCC(=O)N(C)C)C(=O)OCC(CN)N1C(=O)C=CC1=O (stereo not drawn) | 8.00

Consider now this further molecule.
Asked: Query (molecule): CN(C)C(=O)CN(C)C(=O)OCC(CN)N1C(=O)C=CC1=O (stereo not drawn) ; field requested: MS DAR
Given back: 7.88

----------
Parameter: RO (%) HC. Scope: all listed entries.
test: Conjugator-antibody conjugate maleimide hydrolysis (ring opening) kinetics by reduced LCMS; assay type: physicochemical; conditions: pH 7, time point 24 h
Write down the numeric answer in % and omit the unit.

Recorded results for 3 compounds are shown here.
compound | RO (%) HC
CN(C)C(=O)CCOCCC(CN)N1C(=O)C=CC1=O (stereo not drawn) [3-14] | 99.69
CN(C)C(=O)CCNC(=O)NCC(CN)N1C(=O)C=CC1=O (stereo not drawn) [3-12] | 99.64
CN(C)C(=O)CCNC(=O)OCCC(CN)N1C(=O)C=CC1=O (stereo not drawn) [3-13] | 100.00

Asked: Query (compound): NCC(COC(=O)NCCOCCOCCOCCOCCC(=O)O)N1C(=O)C=CC1=O (stereo not drawn) [3-4] ; field requested: RO (%) HC
Given back: 99.08

Asked: Query (compound): CC(C)N(CCC(=O)N(C)C)C(=O)OCC(CN)N1C(=O)C=CC1=O (stereo not drawn) [3-9] ; field requested: RO (%) HC
Given back: 100

Asked: Query (compound): CN(C)C(=O)CCOCC(N)CN1C(=O)C=CC1=O (stereo not drawn) [3-7] ; field requested: RO (%) HC
Given back: 90.8
